Taken from PubChem BioAssay (NCI).

# Test system: HCC-2998 colon
# test-name: NCI tumour cell line growth inhibition, 48 h; in the data active = GI50 below about 0.43 µM; inactive = the rest
Could you please pick one outcome from this set? active, inactive

compound	label
NCCCC[C@@H]1NC(=O)[C@H](CC(=O)O)NC(=O)CNC(=O)[C@H](CCCN=C(N)N)NC(=O)[C@@H](N)CSSC[C@@H](C(=O)O)NC(=O)[C@H](CC(=O)O)NC(=O)[C@@H]2CCCN2C(=O)CNC1=O	inactive
CCC(C)[C@H](NC(=O)Nc1cc(C(F)(F)F)cc(C(F)(F)F)c1)C(=O)N[C@@H](Cc1cn(C)cn1)C(=O)OC (some centres not stated)	inactive

## Task # outcome recorded in this test, key = COc1cc(/C=N/Nc2ncnc3c2cnn3-c2ccccc2)ccc1O
## Result inactive

## Task # outcome recorded in this test, key = O=C1CC(c2cccc(F)c2)Nc2cc3c(cc21)OCO3 (configuration not stated)
## Result active

## Task # outcome recorded in this test, key = Cc1ccccc1NC(=O)c1sc2nc(C)c(C(=O)/C=C/c3ccccc3)cc2c1N
## Result inactive

## Task # outcome recorded in this test, key = COc1ccc2c(c1)[nH]c(=O)c1c3cccc(F)c3cn21
## Result active

## Task # outcome recorded in this test, key = COc1ccc(C/C(=C(\C)c2ccc(OCCN3CCCC3)cc2)c2ccc(OCCN3CCCC3)cc2)cc1
## Result inactive
